# TARGET ENTITY: MDA-9 PDZ2 domain (Homo sapiens)
# Construct: PDZ1 (110–193aa), PDZ2 (194–274aa), and the C-terminal (275–298aa); made in house
# Sequence (O00560 194-274): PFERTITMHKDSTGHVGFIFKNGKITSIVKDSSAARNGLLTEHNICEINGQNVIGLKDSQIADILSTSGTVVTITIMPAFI
# TEST PROTOCOL: Competitive fluorescence polarization with FITC-peptide
# SETUP CONDITIONS: 250 μM PDZ2, 500 nM FITC-peptide; read-out: Binding affinity to PDZ2 from competitive FP
ENDPOINT NAME: Kd (µM)
Number in µM, nothing else.

q: Given the entry O=C(O)c1cc(-c2ccc(F)cc2)n[nH]1 , report its measured Kd.
a: 510
